# Tested on: acetylcholine-induced bronchospasm
# Assay Comment: Antagonism to acetylcholine-provoked bronchospasm in anesthetized guinea pigs (Konzett and Rossler), i.v.; antiasthmatic / bronchospasmolytic activity
# Type: in vivo
# Protocol Conditions: guinea pig
Property Measured: Average duration of effective action in the ED50 range

Solved entries (count: 2):
INSERT INTO measurements (sample_smiles, meas_value) VALUES
  ('CCN(CC)CCCN1c2ccccc2N(C)C(=O)c2cccnc21.Cl', '> 130 min'),
  ('CNCCCN1c2ccccc2N(C)C(=O)c2cccnc21.Cl', '45 min');

Request: Look up Average duration of effective action in the ED50 range for this compound: CN1C(=O)c2ccccc2N(CCCN2CCCC2)c2ncccc21.Cl
Result: > 50 min

Request: Ok, now CCN(CC)CCN1c2ccccc2N(C)C(=O)c2cccnc21.Cl
Result: 50 min

====

# System: heart rate
# Assay Comment: Effect on heart rate of the anesthetized cat after intravenous administration
# Type: in vivo
# Protocol Conditions: i.v., graphic extrapolation
Quick reference for ED25 (dose leading to a 25% alteration of the heart rate) among some compounds

Solved entries (count: 3):
INSERT INTO assay_data (sample_smiles, subject_of_test, meas_value) VALUES
  ('CC(C)N(CCCN1c2ccccc2C(=O)N(C)c2cccnc21)C(C)C.Cl', 'heart rate', '3,600 γ/kg'),
  ('CC(C)N(CCCN1c2ccccc2N(C)C(=O)c2cccnc21)C(C)C.Cl', 'heart rate', '> 4,000 γ/kg'),
  ('CN1C(=O)c2cccnc2N(CCCN2CCCC2)c2ccccc21.Cl', 'heart rate', '3,950 γ/kg');

Request: Look up ED25 (dose leading to a 25% alteration of the heart rate) for this compound: CN1C(=O)c2ccccc2N(CCCN2CCCCCC2)c2ncccc21.Cl
Result: > 4,000 γ/kg

Request: Ok, now CN1C(=O)c2cccnc2N(CCCN2CCCCC2)c2ccccc21.Cl
Result: > 4,000 γ/kg

Request: Ok, now CCN(CC)CCCN1c2ccccc2N(C)C(=O)c2cccnc21.Cl
Result: > 16,000 γ/kg

Request: Ok, now CN1C(=O)c2ccccc2N(CCCN2CCCCC2)c2ncccc21.Cl
Result: > 4,000 γ/kg

Request: Ok, now CCN(CCCN1c2ccccc2N(C)C(=O)c2cccnc21)C(C)C.Cl
Result: > 4,000 γ/kg

Request: Ok, now CC(C)N(CCN1c2ccccc2N(C)C(=O)c2cccnc21)C(C)C.Cl
Result: > 4,000 γ/kg

Request: Ok, now CN1C(=O)c2ccccc2N(CCCN2CCCC2)c2ncccc21.Cl
Result: > 4,000 γ/kg

Request: Ok, now CCNCCCN1c2ccccc2N(C)C(=O)c2cccnc21.Cl
Result: > 4,000 γ/kg

====

# Tested on: acetylcholine-induced bronchospasm
# Assay Comment: Antagonism to acetylcholine-provoked bronchospasm in anesthetized guinea pigs (Konzett and Rossler), i.v.; antiasthmatic / bronchospasmolytic activity
# Type: in vivo
# Protocol Conditions: guinea pig
Property Measured: Average duration of effective action in the ED50 range

Solved entries (count: 3):
INSERT INTO measurements (sample_smiles, meas_value) VALUES
  ('CN1C(=O)c2cccnc2N(CCCN2CCCCCC2)c2ccccc21.Cl', '> 50 min'),
  ('CCN(CC)CCCN1c2ccccc2C(=O)N(C)c2cccnc21.Cl', '> 110 min'),
  ('CCN(CC)CCN1c2ccccc2C(=O)N(C)c2cccnc21.Cl', '110 min');

Request: Look up Average duration of effective action in the ED50 range for this compound: CN1C(=O)c2cccnc2N(CCN2CCCC2)c2ccccc21.Cl
Result: > 30 min

Request: Ok, now CN1C(=O)c2ccccc2N(CCCN2CCCCC2)c2ncccc21.Cl
Result: > 110 min

Request: Ok, now CC(C)NCCCN1c2ccccc2N(C)C(=O)c2cccnc21.Cl
Result: > 110 min

Request: Ok, now CC(C)N(CCCN1c2ccccc2N(C)C(=O)c2cccnc21)C(C)C.Cl
Result: 50 min

Request: Ok, now CCNCCCN1c2ccccc2N(C)C(=O)c2cccnc21.Cl
Result: > 90 min

Request: Ok, now CC(C)N(CCN1c2ccccc2N(C)C(=O)c2cccnc21)C(C)C.Cl
Result: 40 min

Request: Ok, now CN(C)CCCN1c2ccccc2N(C)C(=O)c2cccnc21.Cl
Result: > 60 min

Request: Ok, now CCN(CCCN1c2ccccc2N(C)C(=O)c2cccnc21)C(C)C.Cl
Result: > 80 min

Request: Ok, now CC(C)N(CCN1c2ccccc2C(=O)N(C)c2cccnc21)C(C)C.Cl
Result: > 50 min

All values here come from patent US4021557A.
